Tested on: L1210 leukemia ip in BDF1 mice, survival T/C
assay-text: NCI In Vivo Anticancer Drug Screen. Data for tumor model L1210 Leukemia (intraperitoneal) in B6D2F1 (BDF1) mice
protocol-conditions: endpoint: mean survival time; dose: 400.0 mg/kg/injection; schedule: Q01DX009 (ip); vehicle: Klucel (hydroxypropylcellulose) (HPC); higher = longer survival
Experimental: The antitumor activity of compounds was measured in mice bearing transplantable tumors. Survival or tumor size were measured and the results are expressed as the measurement made in the treated group (T) divided by the measurement made in the vehicle treated control group (C). The tumor model used in this assay is L1210 Leukemia (intraperitoneal) in B6D2F1 (BDF1) mice
Inconclusive results and toxic doses are left out.
For each record, write down the corresponding T/C.

Record excerpt, results attached:
compound=CC(=O)c1cccc(NC(=O)Nc2cccc(F)c2)c1 experimental_target="L1210 leukemia ip in BDF1 mice, survival T/C" parameter_measured=T/C recorded_result="110 % of control"
compound="COc1cc2c(cc1OC)C1=CC(=O)N3CCCC34OS(=O)OC14CC2 (stereo unspecified)" experimental_target="L1210 leukemia ip in BDF1 mice, survival T/C" parameter_measured=T/C recorded_result="96 % of control"

// for each compound below, give its T/C
1. O=C(Nc1ccc(Cl)c(Cl)c1)N(CCO)Cc1ccccc1
2. CC(C)(C)C1CCC(NC(=O)CCl)CC1 (stereo unspecified)

["97 % of control", "94 % of control"]

* * *

For each record, write down the corresponding T/C.
Test system: L1210 leukemia ip in BDF1 mice, survival T/C
assay-text: NCI In Vivo Anticancer Drug Screen. Data for tumor model L1210 Leukemia (intraperitoneal) in B6D2F1 (BDF1) mice
protocol-conditions: endpoint: mean survival time; dose: 25.0 mg/kg/injection; schedule: Q01DX009 (ip); vehicle: saline with Tween-80; higher = longer survival
Toxic doses and inconclusive results are not listed.

compound=Cc1nc(N)c(N)nc1C parameter_measured=T/C recorded_result="101 % of control"

// for each compound below, give its T/C
1. Cc1nc(C)c(Br)s1
2. CCN(CC)CCCNC1=C(Cl)C(=O)c2ccccc2C1=O
3. CCOc1ccc(Br)cc1/C=C(\C#N)c1ccc([N+](=O)[O-])cc1
4. CCCCCCCCN(c1ccc(C(=O)NC(CCC(=O)OCC)C(=O)OCC)cc1)S(=O)(=O)c1ccc(C)cc1 (stereo not drawn)
5. Cc1cc(CC(Cl)(C(F)(F)F)C(F)(F)F)cc(CC(Cl)(C(F)(F)F)C(F)(F)F)n1

1. 97 % of control
2. 95 % of control
3. 92 % of control
4. 95 % of control
5. 106 % of control

// for each compound below, give its T/C
1. COc1cc(N(CCCl)CCCl)c(OC)cc1/C=N/NC(=O)CC(N)C(=O)O (stereo not drawn)
2. N/C(Cc1ccc(N)cc1)=N\O

119 % of control
97 % of control

* * *

Test system: L1210 leukemia ip in BDF1 mice, survival T/C
assay-text: NCI In Vivo Anticancer Drug Screen. Data for tumor model L1210 Leukemia (intraperitoneal) in B6D2F1 (BDF1) mice
protocol-conditions: endpoint: mean survival time; dose: 50.0 mg/kg/injection; schedule: Q01DX001 (ip); vehicle: Klucel (hydroxypropylcellulose) (HPC); higher = longer survival
Inconclusive results and toxic doses are left out.
parameter-measured: T/C

Record excerpt, results attached:
compound=Cc1c(N)nc(N)nc1C(=O)O recorded_result="93 % of control"
compound=O=c1[nH]c(CCCOc2ccccc2)nc2ccccc12 recorded_result="93 % of control"
compound=N=C(N)c1ccc(OCCCCOc2ccc(NC(=O)Nc3cccc(S(=O)(=O)F)c3)cc2)cc1 recorded_result="95 % of control"
compound=Nc1ncnc(N)c1NC(=O)c1ccc([N+](=O)[O-])cc1 recorded_result="89 % of control"
compound="CC1CC(C#N)Nc2ccccc2N1 (configuration not stated)" recorded_result="109 % of control"
compound=O=C(Nc1cccc2ccccc12)Oc1cccc2cccnc12 recorded_result="96 % of control"

Need T/C, item COc1cc(C(=O)O)c(C(=O)O)cc1OC
101 % of control

* * *

System: L1210 leukemia ip in BDF1 mice, survival T/C
assay-text: NCI In Vivo Anticancer Drug Screen. Data for tumor model L1210 Leukemia (intraperitoneal) in B6D2F1 (BDF1) mice
protocol-conditions: endpoint: mean survival time; dose: 75.0 mg/kg/injection; schedule: Q01DX001 (ip); vehicle: saline; higher = longer survival
Method: The antitumor activity of compounds was measured in mice bearing transplantable tumors. Survival or tumor size were measured and the results are expressed as the measurement made in the treated group (T) divided by the measurement made in the vehicle treated control group (C). The tumor model used in this assay is L1210 Leukemia (intraperitoneal) in B6D2F1 (BDF1) mice
Inconclusive results and toxic doses are left out.
parameter-measured: T/C

Record excerpt, results attached:
molecule=CCCCCCCCCCCCCCCCCCNc1ccc(C(=O)OCC)cc1 experimental_target="L1210 leukemia ip in BDF1 mice, survival T/C" recorded_result="86 % of control"
molecule=CN1CN(c2ccccc2)C2(CCNCC2)C1=O experimental_target="L1210 leukemia ip in BDF1 mice, survival T/C" recorded_result="102 % of control"

// for each molecule below, give its T/C
1. COc1cc(N(CCCl)CCCl)c(OC)cc1/C=N/NC(=O)CC(N)C(=O)O (stereo not drawn)
2. COC(=O)C1CC(O)CC(C(=O)OC)O1 (stereo not drawn)

["123 % of control", "109 % of control"]

// for each molecule below, give its T/C
1. CC(=O)c1ccccc1O.CO.CO.[Cl][Nb][Cl]
2. OCCc1ccc[nH]1
3. NC1=NC(c2ccc(Cl)cc2)N(c2ccc(S(N)(=O)=O)cc2)C(N)=N1 (stereo not drawn)
4. C[Si](C)(O)CCl
5. N=C(N)c1ncn(C2CCCC2)c1N

1: 93 % of control; 2: 105 % of control; 3: 102 % of control; 4: 102 % of control; 5: 106 % of control

// for each molecule below, give its T/C
1. CN1CCC(CSC(=O)C(O)(c2ccccc2)C2CCCCC2)C1 (stereo not drawn)
2. O=C1C=C(N2CCCC2)CCC1
3. Cc1[nH]nc2c(=O)[nH]c(=O)[nH]c12
4. C[N+]1(CC2CO2)CCOCC1 (stereo not drawn)
5. Cc1ccc(S(=O)(=O)N(C)c2ccc(C(=O)O)cc2F)cc1

1: 97 % of control; 2: 107 % of control; 3: 100 % of control; 4: 109 % of control; 5: 105 % of control

* * *

For each record, write down the corresponding T/C.
Test system: L1210 leukemia ip in BDF1 mice, survival T/C
assay-text: NCI In Vivo Anticancer Drug Screen. Data for tumor model L1210 Leukemia (intraperitoneal) in B6D2F1 (BDF1) mice
protocol-conditions: endpoint: mean survival time; dose: 200.0 mg/kg/injection; schedule: Q04DX003 (ip); vehicle: saline; higher = longer survival
Toxic doses and inconclusive results are not listed.

Record excerpt, results attached:
compound=CNS(=O)(=O)c1ncnc2nc[nH]c12 parameter_measured=T/C recorded_result="122 % of control"
compound="Cc1cc2c(cc1C)NC(C)CC(=O)N2 (stereo unspecified)" parameter_measured=T/C recorded_result="108 % of control"
compound=ClC12CCC(Cl)(CC1)C2(Cl)Cl parameter_measured=T/C recorded_result="95 % of control"
compound=COC(OC)OC parameter_measured=T/C recorded_result="105 % of control"
compound="CC1CNC(=O)N1 (stereo unspecified)" parameter_measured=T/C recorded_result="101 % of control"

// for each compound below, give its T/C
1. C=C(C)CC#N
2. Cn1cnc2cnc([N+](C)(C)C)nc21
3. Nc1cc(S(=O)(=O)O)cc2cc(S(=O)(=O)O)c(N=Nc3cc(S(=O)(=O)O)cc4cc(S(=O)(=O)O)cc(O)c34)c(O)c12
4. CCC(C)C(NC(=O)C1CSC(C)(C)N1C=O)C(=O)OC (stereo unspecified)
5. CCOc1ccc2nc(N)sc2c1

["109 % of control", "114 % of control", "91 % of control", "97 % of control", "89 % of control"]

// for each compound below, give its T/C
1. CCCCCCCCCC1=NN(c2cccc(S(=O)(=O)N(C)c3ccccc3)c2)C(=O)C1
2. N#Cc1cccc(N)c1

1: 94 % of control; 2: 94 % of control

* * *

System: L1210 leukemia ip in BDF1 mice, survival T/C
assay-text: NCI In Vivo Anticancer Drug Screen. Data for tumor model L1210 Leukemia (intraperitoneal) in B6D2F1 (BDF1) mice
protocol-conditions: endpoint: mean survival time; dose: 400.0 mg/kg/injection; schedule: Q04DX003 (ip); vehicle: other; higher = longer survival
Inconclusive results and toxic doses are left out.
For each record, write down the corresponding T/C.

Record excerpt, results attached:
molecule=Oc1ccc(O)c2c1C1(Cl)C(Cl)=C(Cl)C2(Cl)C1(Cl)Cl recorded_result="108 % of control"
molecule=O=C(c1ccc(F)cc1)C(F)(F)F recorded_result="94 % of control"
molecule="O=C(NC(CSSCC(NC(=O)OCc1ccccc1)C(=O)O)C(=O)O)OCc1ccccc1 (stereo unspecified)" recorded_result="96 % of control"

// for each molecule below, give its T/C
1. COC(=O)CCc1ccc(OC)cc1
2. CCCCCCCCCCCCCCCCOCCCCCCCCCCCCCCCC
3. CCCCCCCCN(C)N=Nc1ccc(C(=O)O)cc1

106 % of control
95 % of control
95 % of control

Sourced from PubChem BioAssay AID248
